Ref: BigSolDB 2.1

# CONDITION_DESCRIPTION: in isopropanol, 310.65 K

{"columns": ["SMILES", "solubility (mole fraction)"],
 "data": [
  ["Cc1cc(N)n(-c2ccccc2)n1", 0.108]
]}

====

# CONDITION_DESCRIPTION: in n-propanol, 283.15 K
READOUT_KIND: solubility (mole fraction)

{"columns": ["SMILES", "MEASURED_RESULT"],
 "data": [
  ["Cc1cc(N)n(-c2ccccc2)n1", 0.0705]
]}

====

# CONDITION_DESCRIPTION: in 2-butanone, 318.15 K
READOUT_KIND: solubility (mole fraction)

{"columns": ["SMILES", "MEASURED_RESULT"],
 "data": [
  ["Cc1cc(N)n(-c2ccccc2)n1", 0.111]
]}
